System: E. multilocularis metacestode vesicles
assay.comment: Metacestode vesicle viability assay (ATP, CellTiter-Glo)
Format: cell-based, Echinococcus multilocularis
condition.info: overview screen, 10 μM, singlets, 12 days, relative to DMSO control
Param label: returns 1 when Viability d12 (relative viability) < 80%, returns 0 otherwise, including exact equality.

compound	tested.system	class
NC(=O)c1nccn([C@@H]2O[C@H](CO)[C@@H](O)[C@H]2O)c1=O	E. multilocularis metacestode vesicles	0
[N-]=[N+]=N[C@H]1C[C@H](n2ccc(=O)[nH]c2=O)O[C@@H]1CO	E. multilocularis metacestode vesicles	0
O=C(Nc1ccc(N2CCN(C(=O)c3ccccc3)CC2)cc1)c1ccc2c(c1)OCO2	E. multilocularis metacestode vesicles	0
COc1ccc(-n2cnc3cc(NCc4ccco4)ccc32)cc1	E. multilocularis metacestode vesicles	0
CC(C)(C)NC(=O)N[C@H](C(=O)N1C[C@H]2[C@@H]([C@H]1C(=O)NC(CC1CCC1)C(=O)C(N)=O)C2(C)C)C(C)(C)C (some centres unmarked)	E. multilocularis metacestode vesicles	1
C[C@@H](NC(=O)c1cccc(-c2cnc(-c3cc4ccccc4cn3)[nH]2)c1)c1ccc(F)cc1	E. multilocularis metacestode vesicles	0
CN1C(=O)C(c2ccccc2)C(=O)N(c2ccccc2)c2cc(C(F)(F)F)ccc21 (centres unmarked)	E. multilocularis metacestode vesicles	0
CC(C)(C)c1ccc(Oc2ccc(N)cc2)cc1	E. multilocularis metacestode vesicles	0
C[C@H]1[C@@H](c2cccc(C(F)(F)F)c2)OC(=O)N1C(=O)NCc1cncc2ccccc12	E. multilocularis metacestode vesicles	0
N=c1n(CCN2CCCCC2)c2ccccc2n1CC(O)COc1ccc(Cl)cc1Cl (centres unmarked)	E. multilocularis metacestode vesicles	1
NC[C@H]1OB(O)c2c(OCCCO)cccc21	E. multilocularis metacestode vesicles	1
O=C(O)[C@H]1C2CCC(CC2)[C@@H]1Nc1nc(-c2c[nH]c3ncc(F)cc23)ncc1F	E. multilocularis metacestode vesicles	0
CCOC(=O)/C=C/[C@H](C[C@@H]1CCNC1=O)NC(=O)[C@H](CC)n1cccc(NC(=O)c2cc(C)on2)c1=O	E. multilocularis metacestode vesicles	0
O=C1c2cccc3cccc(c23)C(=O)N1CC1CO1 (centres unmarked)	E. multilocularis metacestode vesicles	1
COc1ccc2c(c1OC)C(=O)OC2C1c2c(cc3c(c2OC)OCO3)CCN1C (centres unmarked)	E. multilocularis metacestode vesicles	0
NC(=O)c1ccccc1NC(=O)c1ccc(C(=O)Nc2ccccc2C(N)=O)cc1	E. multilocularis metacestode vesicles	0
CC(C)Oc1ccc(-c2nc(-c3cccc4c3CC[C@@H]4NCCO)no2)cc1C#N	E. multilocularis metacestode vesicles	1
O=C(NCCN1CCCCC1)c1cccc(C(F)(F)F)c1	E. multilocularis metacestode vesicles	0
OCCC#Cc1nc(-c2ccc(F)cc2)c(-c2ccncc2)n1CCCc1ccccc1	E. multilocularis metacestode vesicles	0
O=C(NCc1ccc(F)cc1)c1c(O)c2ncccc2[nH]c1=O	E. multilocularis metacestode vesicles	0
Nc1nc(N)c2c(Sc3ccccc3)cccc2n1	E. multilocularis metacestode vesicles	1
CN1CCN(Cc2ccc(-c3cnc4[nH]cc(-c5ccc6[nH]ccc6c5)c4c3)cc2)CC1	E. multilocularis metacestode vesicles	0
Nc1cc(N)c2nc(-c3ccccc3)c(Nc3ccc(F)cc3)nc2c1	E. multilocularis metacestode vesicles	0
COc1ccc(NC(=O)CC2Sc3ncnn3C2=O)cc1 (centres unmarked)	E. multilocularis metacestode vesicles	1
CN(C(=O)C1(c2ccc(Cl)cc2)CCC1)c1ccccc1	E. multilocularis metacestode vesicles	0
Cl.Nc1nc(-c2ccccc2)nc2c1ncn2[C@@H]1O[C@H](COS(=O)(=O)NC(=O)c2ccccc2O)[C@@H](O)[C@H]1O	E. multilocularis metacestode vesicles	0
CC(=O)NC[C@H]1CN(c2ccc(N3CCSCC3)c(F)c2)C(=O)O1	E. multilocularis metacestode vesicles	0
CCCC1(C2CC2)c2cc(Cl)ccc2NC(=O)N1C (centres unmarked)	E. multilocularis metacestode vesicles	0
CCN1CCN(Cc2nc3ccc([N+](=O)[O-])cc3c(=O)n2-c2ccccc2F)CC1	E. multilocularis metacestode vesicles	0
O=C(NCc1ncc(C(F)(F)F)cc1Cl)c1c(Cl)cccc1Cl	E. multilocularis metacestode vesicles	1
NC(=S)N/N=C/c1ncccc1N	E. multilocularis metacestode vesicles	1
Clc1cc2nc(C3CCNCC3)n(Cc3ccc(CNCCc4c[nH]cn4)cc3)c2cc1Cl	E. multilocularis metacestode vesicles	0
CO/N=C(\C(=O)N[C@@H]1C(=O)N2C(C(=O)OCOC(=O)C(C)(C)C)=C(/C=C\c3scnc3C)CS[C@H]12)c1csc(N)n1	E. multilocularis metacestode vesicles	1

FYI, the data here is from paper PMC12410356.
